Source listed as BindingDB's records for doi:10.1016/s0960-894x(00)00462-5.

Target: Capsid scaffolding protein / assemblin protease (Human cytomegalovirus) (UniProt P16753)
Sequence (P16753 whole entry, looked up): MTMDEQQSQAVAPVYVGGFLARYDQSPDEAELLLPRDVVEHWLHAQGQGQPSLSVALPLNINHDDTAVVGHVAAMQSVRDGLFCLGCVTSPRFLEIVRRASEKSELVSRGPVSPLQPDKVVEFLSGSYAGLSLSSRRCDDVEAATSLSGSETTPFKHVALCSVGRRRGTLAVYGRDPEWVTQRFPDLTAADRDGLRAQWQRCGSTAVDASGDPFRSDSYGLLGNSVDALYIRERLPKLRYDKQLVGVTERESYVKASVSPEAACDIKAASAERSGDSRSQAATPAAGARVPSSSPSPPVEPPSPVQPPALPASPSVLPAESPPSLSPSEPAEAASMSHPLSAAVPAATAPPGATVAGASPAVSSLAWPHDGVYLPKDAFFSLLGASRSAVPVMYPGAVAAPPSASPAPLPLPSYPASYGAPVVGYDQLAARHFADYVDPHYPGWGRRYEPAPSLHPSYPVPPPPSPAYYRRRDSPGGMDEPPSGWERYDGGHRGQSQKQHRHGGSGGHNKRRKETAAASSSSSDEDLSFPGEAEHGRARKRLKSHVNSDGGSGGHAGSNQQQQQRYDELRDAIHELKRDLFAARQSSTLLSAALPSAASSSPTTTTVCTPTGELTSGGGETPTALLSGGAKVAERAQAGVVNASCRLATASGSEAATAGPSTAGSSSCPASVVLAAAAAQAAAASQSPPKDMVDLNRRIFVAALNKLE
Test: In vitro inhibitory activity against human cytomegalovirus (hCMV) protease in the presence of zinc
experimental readout: pIC50
As a rule, pIC50 stands for the negative log10 of the concentration, concentration in M.

For the compound shown here, CCCCCCCCSc1ncc(Cc2cn(CC(=O)NC(Cc3ccccc3)C(=O)OCc3ccccc3)cn2)[nH]1 (stereo unspecified) , give the reported pIC50.
4.39

* * *

Target: Capsid scaffolding protein / assemblin protease (Human cytomegalovirus) (UniProt P16753)
Test: In vitro inhibitory activity against human cytomegalovirus (hCMV) protease in the absence of zinc
experimental readout: IC50 (µM)
Form entry: value (µM) — number only.

# compound, unit info, IC50
data = [
    ("CCCCCCCCSc1ncc(Cc2cn(CC(=O)NC(Cc3ccccc3)C(=O)OCc3ccccc3)cn2)[nH]1 (centres undefined)", "µM", 125),
]

Continue with the compound presented below.
Using the record for CCCCCCCCSc1ncc(Cc2cn(CC(=O)NC(CC(=O)OCc3ccccc3)C(=O)OCc3ccccc3)cn2)[nH]1 (centres undefined) , report its IC50.
15
